Tested on: NHEK cells (proliferating keratinocytes)
protocol-description: Human Keratinocyte Inhibition
Assay type: cell-based
test-context: 3H-thymidine incorporation, value in parentheses: salt, read-out: NHEK IC50 (salt)
endpoint-label: IC50

Prompt: Name the reported IC50 value associated with the compound `CCCCCCCCCCCCCCCC(=O)N(C)CCCN(C)C`
Response: 2.4 µM

Let's switch to this compound now.
Prompt: Fill in the blank: the reported IC50 of `CCCCCCCCCCCCCCCC(=O)NCCCN(C)C` is ____.
Response: 0.78 µM

* * *

Test system: NHEK cells (proliferating keratinocytes)
protocol-description: Human Keratinocyte Inhibition
Assay type: cell-based
test-context: 3H-thymidine incorporation, value outside parentheses (not salt), read-out: NHEK IC50
Would you mind telling me the reported pIC50 of each entry?
Give bare numbers, as −log10 of the molar value.

Below: 2 molecules and their reported pIC50.
Prompt: Request body: readout pIC50, system NHEK cells (proliferating keratinocytes), query `CCCCCCCCCCCCCCCC(=O)NCCCN(CC)CC` . Return the value.
Response: 5.81

Prompt: Given the entry `CCCCCCCCCCCCCCCC(=O)NCCC[N+](C)(C)C` , what pIC50 was observed with NHEK cells (proliferating keratinocytes)?
Response: 5.48

Provide pIC50 for all items below, preserving their order.
1. CCCCCCCCCCCCCCCCN(CCCN(C)C)C(C)=O
2. CCCCCCCCCCCCCCCC(=O)N(CCC)CCCN(C)C
3. CCCCCCCCCCCCCCCC(=O)N(CCCN(C)C)C(C)C
4. CCCCCCCCCCCCCCCC(=O)N(C)CCCN(C)C
5. CCCCCCCCCCCCCCCC(=O)N(CCC[N+]1(C)CCOCC1)Cc1ccccc1

Response:
1. 5.89
2. 5.99
3. 6.85
4. 6.10
5. 5.80

Prompt: Observed pIC50 on NHEK cells (proliferating keratinocytes) for `CCCCCCCCCCCCCCCC(=O)N(C)CCC[N+]1(C)CCOCC1` , please.
Response: 5.85
